Every entry's value here was drawn from ChEMBL document CHEMBL1140722.

# protocol-description: Cytotoxicity against human MCF10A cells after 5 days by MTT assay
# Assay type: cell-based
# experimental-context: MCF-10A, 120 h
pIC50: −log10 of the molar value.

smiles-record | relational-operator | pIC50
Nc1n[nH]c(=O)c2ncn([C@@H]3O[C@H](CO)[C@@H](O)[C@H]3O)c12 | = | 4.08
Nc1n[nH]c(=O)c2c1ncn2[C@H]1C[C@H](O)[C@@H](CO)O1 | < | 4.00
Nc1n[nH]c(=O)c2c1ncn2[C@@H]1O[C@H](CO)[C@@H](O)[C@H]1O | = | 4.08
Nc1n[nH]c(=O)c2ncn([C@H]3C[C@H](O)[C@@H](CO)O3)c12 | < | 4.00
